- MEASURED TARGET: Galectin-3 (Homo sapiens, UniProt P17931)
- Sequence (P17931 whole entry): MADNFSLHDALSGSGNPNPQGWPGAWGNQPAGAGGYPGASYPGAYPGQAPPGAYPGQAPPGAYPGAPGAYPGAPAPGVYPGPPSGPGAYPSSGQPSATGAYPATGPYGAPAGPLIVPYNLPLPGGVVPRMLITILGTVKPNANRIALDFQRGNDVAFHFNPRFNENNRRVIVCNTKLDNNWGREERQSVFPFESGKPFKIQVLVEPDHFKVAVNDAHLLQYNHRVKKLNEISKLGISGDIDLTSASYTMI
Each entry below lists one item and its recorded IC50 value.

Example cases with answers are listed next.
Cc1nc(C(S[C@@H]2O[C@H](CO)[C@H](O)[C@H](n3cc(-c4cc(F)c(F)c(F)c4)nn3)[C@H]2O)C(C)(C)O)c(C)s1 (stereo partly drawn) [US12404295, Example 2.31.123.]
0.55 µM
OC[C@H]1O[C@@H](S[C@@H](c2ncccc2C(F)(F)F)C2(O)CC(F)(F)C2)[C@H](O)[C@@H](n2cc(-c3cc(F)c(F)c(F)c3)nn2)[C@H]1O [US12404295, Example 2.35.125S.]
3 µM

Turning now to a further record.
Write down the reported IC50 of CC1(C)C[C@](O)([C@@H](S[C@@H]2O[C@H](CO)[C@H](O)[C@H](n3cc(-c4cc(F)c(F)c(F)c4)nn3)[C@H]2O)c2ccccc2C(F)(F)F)CCO1 [US12404295, Example 2.43.102SS.] , test system: Galectin-3 (Homo sapiens, UniProt P17931).
3.92 µM

----------
- MEASURED TARGET: Galectin-3 (Homo sapiens, UniProt P17931)
- METHOD NOTES: Competitive Binding Assay
PARAMETER: IC50 (nM)
The response must be a number in nM with no trailing unit.

Example cases with answers are listed next.
Cc1ccccc1[C@H](S[C@@H]1O[C@H](CO)[C@H](O)[C@H](n2cc(-c3cc(F)c(F)c(F)c3)nn2)[C@H]1O)[C@]1(O)CCOC(C)(C)C1 [US12404295, Example 2.43.112SS.]
7300
Cc1nc([C@@H](S[C@@H]2O[C@H](CO)[C@H](O)[C@H](n3cc(-c4cc(F)c(F)c(F)c4)nn3)[C@H]2O)C(C)(C)O)c(C)s1 [US12404295, Example 2.31.123R.]
280
OC[C@H]1O[C@@H](S[C@H](c2cccc(Cl)c2Cl)C2(O)CCC(F)(F)CC2)[C@H](O)[C@@H](n2cc(-c3cc(F)c(F)c(F)c3)nn2)[C@H]1O [US12404295, Example 2.44.113R.]
800
CC1(C)C[C@](O)([C@H](S[C@@H]2O[C@H](CO)[C@H](O)[C@H](n3cc(-c4cc(F)c(F)c(F)c4)nn3)[C@H]2O)c2ccccc2C(F)(F)F)CCO1 [US12404295, Example 2.43.102RS.]
40
CC1(C)CC(O)(C(S[C@@H]2O[C@H](CO)[C@H](O)[C@H](n3cc(-c4cc(F)c(F)c(F)c4)nn3)[C@H]2O)c2ccccc2C(F)(F)F)CCO1 (stereo partly drawn)
120

IC50 for Cc1ccccc1[C@@H](S[C@@H]1O[C@H](CO)[C@H](O)[C@H](n2cc(-c3cc(F)c(F)c(F)c3)nn2)[C@H]1O)[C@]1(O)CCOC(C)(C)C1 [US12404295, Example 2.43.112RS.] ?
130

And then OC[C@H]1O[C@@H](S[C@H](c2ccccc2C2CC2)C2(O)CCC(F)(F)CC2)[C@H](O)[C@@H](n2cc(-c3cc(F)c(F)c(F)c3)nn2)[C@H]1O [US12404295, Example 2.44.106R.*] , what is it?
60

How about CC1(C)C[C@@](O)([C@@H](S[C@@H]2O[C@H](CO)[C@H](O)[C@H](n3cc(-c4cc(F)c(F)c(F)c4)nn3)[C@H]2O)c2ccccc2C(F)(F)F)CCO1 [US12404295, Example 2.43.102SR.] ?
3900
